# assay comment: Plasma BCV PK following single dose oral tablet administration (Table 105)
# Type: in vivo
# assay context: human, plasma, po, 100 mg, 100 mg Oral Tablet, N = 52, geometric mean
measure name: AUC(0-inf) (ng·h/mL)
One number for each entry, in ng·h/mL.

Ask: Fill blank: measured AUC(0-inf) of the molecule CCCCCCCCCCCCCCCCOCCCOP(=O)(O)CO[C@H](CO)Cn1ccc(N)nc1=O is ____.
Reply: 1380

###

# assay comment: Phase 2 toxicokinetics of brincidofovir and cidofovir in plasma
# Assay type: in vivo, Sprague-Dawley CD rats
# assay context: male, Sprague-Dawley CD, rat, plasma, intravenous, 15 mg/kg, brincidofovir 15 mg/kg, Male, Day 7, 24 h; read-out: brincidofovir Imputed Mean Concentration (IMC)
measure name: concentration at 24 h (ng/mL)
Answers are plain numbers, in ng/mL.

Ask: Fill blank: measured concentration at 24 h of the compound CCCCCCCCCCCCCCCCOCCCOP(=O)(O)CO[C@H](CO)Cn1ccc(N)nc1=O [Brincidofovir] is ____.
Reply: 1.45
